- Assayed System: α-amylase from Aspergillus oryzae (Aspergillus oryzae)
Reported pIC50 values are given for each entry in this list.
Reminder that pIC50 means the negative base-10 logarithm of the concentration expressed in mol/L.

// worked examples, pIC50 included
compound="CCn1cc(C(=O)CC(c2cccc(F)c2)C2C(=O)N(C)C(=O)N(C)C2=O)c2ccccc21 (stereo not shown)" numeric_readout=4.05
compound="CCn1cc(C(=O)CC(c2ccc(Cl)cc2)C2C(=O)N(C)C(=O)N(C)C2=O)c2ccccc21 (stereo not shown)" numeric_readout=4.15
compound="CCn1cc(C(=O)CC(c2ccc3ccccc3c2)C2C(=O)N(C)C(=O)N(C)C2=O)c2ccccc21 (stereo not shown)" numeric_readout=4.66
compound="CCn1cc(C(=O)CC(c2ccc([N+](=O)[O-])cc2)C2C(=O)N(C)C(=O)N(C)C2=O)c2ccccc21 (stereo not shown)" numeric_readout=4.20
compound="CCn1cc(C(=O)CC(c2cccs2)C2C(=O)N(C)C(=O)N(C)C2=O)c2ccccc21 (stereo not shown)" numeric_readout=4.45

State pIC50 (α-amylase from Aspergillus oryzae (Aspergillus oryzae)) of CCn1cc(C(=O)CC(c2cccc(C)c2)C2C(=O)N(C)C(=O)N(C)C2=O)c2ccccc21 (stereo not shown) . 4.02

====

- Assayed System: α-glucosidase type 1 from baker's yeast (Saccharomyces cerevisiae, UniProt P53341)
- Construct: purchased Sigma-Aldrich G5003
- Sequence (P53341 whole entry): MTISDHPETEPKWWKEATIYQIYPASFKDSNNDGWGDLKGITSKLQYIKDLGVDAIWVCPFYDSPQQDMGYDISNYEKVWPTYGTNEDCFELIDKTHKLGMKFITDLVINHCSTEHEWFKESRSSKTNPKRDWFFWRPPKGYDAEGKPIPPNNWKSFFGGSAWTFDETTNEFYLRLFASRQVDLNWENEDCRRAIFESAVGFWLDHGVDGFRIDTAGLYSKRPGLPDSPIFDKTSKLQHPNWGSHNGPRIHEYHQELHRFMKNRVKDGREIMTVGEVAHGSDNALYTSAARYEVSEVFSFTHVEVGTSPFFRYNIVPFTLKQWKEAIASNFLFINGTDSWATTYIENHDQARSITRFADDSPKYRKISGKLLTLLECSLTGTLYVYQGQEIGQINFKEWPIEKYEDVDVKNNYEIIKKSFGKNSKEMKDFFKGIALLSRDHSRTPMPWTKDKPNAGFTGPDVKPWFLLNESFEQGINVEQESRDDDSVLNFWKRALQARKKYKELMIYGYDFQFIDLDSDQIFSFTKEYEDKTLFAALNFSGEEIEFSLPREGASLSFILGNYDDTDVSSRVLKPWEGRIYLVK
- Measurement Protocol: α-Glucosidase inhibition assay
- Type: biochemical
Mark y for IC50 under 60 µM, n if at or over.

compound="CN1C(=O)C(C(CC(=O)c2cn(C)c3ccccc23)c2ccccc2)C(=O)N(C)C1=O (stereo not shown)" answer_label=n

Bench note: check whether CCn1cc(C(=O)CC(c2ccc3ccccc3c2)C2C(=O)N(C)C(=O)N(C)C2=O)c2ccccc21 (stereo not shown) shows IC50 below 60 µM y

Bench note: check whether CCn1cc(C(=O)CC(c2ccco2)C2C(=O)N(C)C(=O)N(C)C2=O)c2ccccc21 (stereo not shown) shows IC50 below 60 µM n

Bench note: check whether CCn1cc(C(=O)CC(c2ccc([N+](=O)[O-])cc2)C2C(=O)N(C)C(=O)N(C)C2=O)c2ccccc21 (stereo not shown) shows IC50 below 60 µM y

Bench note: check whether CCn1cc(C(=O)CC(c2ccc(C(F)(F)F)cc2)C2C(=O)N(C)C(=O)N(C)C2=O)c2ccccc21 (stereo not shown) shows IC50 below 60 µM y

Bench note: check whether CCn1cc(C(=O)CC(c2cccc(Br)c2)C2C(=O)N(C)C(=O)N(C)C2=O)c2ccccc21 (stereo not shown) shows IC50 below 60 µM n

Bench note: check whether CCn1cc(C(=O)CC(c2ccc(C)cc2)C2C(=O)N(C)C(=O)N(C)C2=O)c2ccccc21 (stereo not shown) shows IC50 below 60 µM y

====

Reported melting point values are given for each entry in this list.

// worked examples, melting point included
compound="CCn1cc(C(=O)CC(c2cccc(F)c2)C2C(=O)N(C)C(=O)N(C)C2=O)c2ccccc21 (stereo not drawn)" measured_attribute="melting point" result="188 to 189 °C"
compound="CCn1cc(C(=O)CC(c2ccc(C)cc2)C2C(=O)N(C)C(=O)N(C)C2=O)c2ccccc21 (stereo not drawn)" measured_attribute="melting point" result="155 to 156 °C"
compound="CCn1cc(C(=O)CC(c2cccs2)C2C(=O)N(C)C(=O)N(C)C2=O)c2ccccc21 (stereo not drawn)" measured_attribute="melting point" result="154 to 155 °C"
compound="CCn1cc(C(=O)CC(c2ccc([N+](=O)[O-])cc2)C2C(=O)N(C)C(=O)N(C)C2=O)c2ccccc21 (stereo not drawn)" measured_attribute="melting point" result="198 to 199 °C"
compound="CCn1cc(C(=O)CC(c2ccc(Cl)cc2Cl)C2C(=O)N(C)C(=O)N(C)C2=O)c2ccccc21 (stereo not drawn)" measured_attribute="melting point" result="149 to 150 °C"
compound="CCn1cc(C(=O)CC(c2cccc(Br)c2)C2C(=O)N(C)C(=O)N(C)C2=O)c2ccccc21 (stereo not drawn)" measured_attribute="melting point" result="130 to 131 °C"
compound="CCn1cc(C(=O)CC(c2ccc(Br)cc2)C2C(=O)N(C)C(=O)N(C)C2=O)c2ccccc21 (stereo not drawn)" measured_attribute="melting point" result="159 to 160 °C"
compound="CN1C(=O)C(C(CC(=O)c2cn(C)c3ccccc23)c2ccccc2)C(=O)N(C)C1=O (stereo not drawn)" measured_attribute="melting point" result="185 to 186 °C"

Supply recorded melting point for CCn1cc(C(=O)CC(c2cccc(C)c2)C2C(=O)N(C)C(=O)N(C)C2=O)c2ccccc21 (stereo not drawn) here. 125 to 126 °C

Supply recorded melting point for CCn1cc(C(=O)CC(c2cc(OC)c(OC)c(OC)c2)C2C(=O)N(C)C(=O)N(C)C2=O)c2ccccc21 (stereo not drawn) here. 170 to 171 °C

Supply recorded melting point for CCn1cc(C(=O)CC(c2ccc(F)cc2)C2C(=O)N(C)C(=O)N(C)C2=O)c2ccccc21 (stereo not drawn) here. 185 to 186 °C

====

- Assayed System: UniProt P0C1B3
Reported IC50 values are given for each entry in this list.

// worked examples, IC50 included
compound="CN1C(=O)C(C(CC(=O)c2cn(C)c3ccccc23)c2ccccc2)C(=O)N(C)C1=O (stereo not shown) [5a]" result="93.3 µM"
compound="CCn1cc(C(=O)CC(c2cc(OC)c(OC)c(OC)c2)C2C(=O)N(C)C(=O)N(C)C2=O)c2ccccc21 (stereo not shown) [5n]" result="93.3 µM"
compound="CCn1cc(C(=O)CC(c2ccc(Br)cc2)C2C(=O)N(C)C(=O)N(C)C2=O)c2ccccc21 (stereo not shown) [5f]" result="78.2 µM"
compound="CCn1cc(C(=O)CC(c2ccco2)C2C(=O)N(C)C(=O)N(C)C2=O)c2ccccc21 (stereo not shown) [5m]" result="82.1 µM"
compound="CCn1cc(C(=O)CC(c2ccc(C)cc2)C2C(=O)N(C)C(=O)N(C)C2=O)c2ccccc21 (stereo not shown) [5b]" result="80.2 µM"

The record that follows has no IC50 shown yet.
State IC50 (UniProt P0C1B3) of CCn1cc(C(=O)CC(c2ccc(Cl)cc2Cl)C2C(=O)N(C)C(=O)N(C)C2=O)c2ccccc21 (stereo not shown) [5d] . 96.4 µM

====

What follows is a collection of IC50 values obtained with α-glucosidase type 1 from baker's yeast (Saccharomyces cerevisiae).
Quick note: unit goes after the number.

molecule="CCn1cc(C(=O)CC(c2cccc(F)c2)C2C(=O)N(C)C(=O)N(C)C2=O)c2ccccc21 (stereo not drawn) [5h]" measured_attribute=IC50 result="61.1 µM"
molecule="CCn1cc(C(=O)CC(c2ccc(OC)cc2)C2C(=O)N(C)C(=O)N(C)C2=O)c2ccccc21 (stereo not drawn) [5e]" measured_attribute=IC50 result="61.4 µM"
molecule="CCn1cc(C(=O)CC(c2ccc(Cl)cc2Cl)C2C(=O)N(C)C(=O)N(C)C2=O)c2ccccc21 (stereo not drawn) [5d]" measured_attribute=IC50 result="58.2 µM"
molecule="CCn1cc(C(=O)CC(c2cc(OC)c(OC)c(OC)c2)C2C(=O)N(C)C(=O)N(C)C2=O)c2ccccc21 (stereo not drawn) [5n]" measured_attribute=IC50 result="53.2 µM"
molecule="CCn1cc(C(=O)CC(c2ccc(Cl)cc2)C2C(=O)N(C)C(=O)N(C)C2=O)c2ccccc21 (stereo not drawn) [5c]" measured_attribute=IC50 result="49.7 µM"
molecule="CCn1cc(C(=O)CC(c2ccc(F)cc2)C2C(=O)N(C)C(=O)N(C)C2=O)c2ccccc21 (stereo not drawn) [5g]" measured_attribute=IC50 result="69.7 µM"

Supply recorded IC50 for CCn1cc(C(=O)CC(c2cccs2)C2C(=O)N(C)C(=O)N(C)C2=O)c2ccccc21 (stereo not drawn) [5l] here. 22.3 µM

Supply recorded IC50 for CCn1cc(C(=O)CC(c2ccc(Br)cc2)C2C(=O)N(C)C(=O)N(C)C2=O)c2ccccc21 (stereo not drawn) [5f] here. 53.2 µM

Supply recorded IC50 for CCn1cc(C(=O)CC(c2cccc(C)c2)C2C(=O)N(C)C(=O)N(C)C2=O)c2ccccc21 (stereo not drawn) [5i] here. 73.2 µM

====

Reported melting point values are given for each entry in this list.

molecule="CCn1cc(C(=O)CC(c2ccco2)C2C(=O)N(C)C(=O)N(C)C2=O)c2ccccc21 (stereo not shown)" measured_attribute="melting point" result="188 to 189 °C"

Supply recorded melting point for CCn1cc(C(=O)CC(c2ccc(OC)cc2)C2C(=O)N(C)C(=O)N(C)C2=O)c2ccccc21 (stereo not shown) here. 128 to 129 °C

Supply recorded melting point for CCn1cc(C(=O)CC(c2ccc(C(F)(F)F)cc2)C2C(=O)N(C)C(=O)N(C)C2=O)c2ccccc21 (stereo not shown) here. 168 to 169 °C

Supply recorded melting point for CCn1cc(C(=O)CC(c2ccc(Cl)cc2)C2C(=O)N(C)C(=O)N(C)C2=O)c2ccccc21 (stereo not shown) here. 166 to 167 °C
